target: UniProt P28845; assay: biochemical; details: read-out: Average % inhibition at 111.1 nM, Biological Test Example 1; 111.1 nM compound
Sequence (P28845 whole entry): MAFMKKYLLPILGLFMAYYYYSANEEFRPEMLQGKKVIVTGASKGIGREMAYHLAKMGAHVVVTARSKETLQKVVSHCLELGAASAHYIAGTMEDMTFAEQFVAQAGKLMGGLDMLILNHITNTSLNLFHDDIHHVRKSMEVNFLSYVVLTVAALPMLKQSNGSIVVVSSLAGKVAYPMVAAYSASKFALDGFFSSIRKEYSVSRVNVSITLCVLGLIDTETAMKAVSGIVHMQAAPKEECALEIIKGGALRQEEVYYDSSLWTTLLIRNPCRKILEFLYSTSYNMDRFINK
Known inhibition at 0.1111 µM of a selection of molecules
Your answer is read as %, so omit the unit and give the number.

Use the examples below as a reference point.
> print(dat)
                                   molecule       parameter.measured  unit.of.measure  quantitative.readout
1  C=CCC1(c2ccc(F)cc2)CCN([C@@H](C)c2ccccc2)C(=O)O1 (stereo partly drawn)  inhibition at 0.1111 µM                %                  97.3
2  CNS(=O)(=O)c1cccc(-c2cccc(N3CCC(C)(c4ccccc4)OC3=O)c2)c1 (stereo not drawn)  inhibition at 0.1111 µM                %                  23.1
3  CNS(=O)(=O)c1ccc(-c2cccc(N3CCC(C)(c4ccccc4)OC3=O)c2)cc1 (stereo not drawn)  inhibition at 0.1111 µM                %                  36.3

Q: Write down the reported inhibition at 0.1111 µM (system: UniProt P28845) of CC1(c2ccccc2)CCN(c2cccc(-c3cccc(NS(C)(=O)=O)c3)c2)C(=O)O1 (stereo not drawn)
A: 29.8

Q: Find the measured inhibition at 0.1111 µM of C[C@@H](c1ccccc1)N1CCC(C)(c2ccccc2)OC1=O (single isomer, unassigned) [EXAMPLE 82 Isomer 1] with UniProt P28845 as test system.
A: 87.6

Q: State recorded inhibition at 0.1111 µM with UniProt P28845, entry CC1(c2ccccc2)CCN(c2cccc(-c3ccccc3Cl)c2)C(=O)O1 (stereo not drawn) , no comment.
A: 90.5

Q: // fetch inhibition at 0.1111 µM for COCCNC(=O)c1cccc(-c2cccc(N3CCC(C)(c4ccccc4)OC3=O)c2)c1 (stereo not drawn) ; system: UniProt P28845
A: 7.2

Q: Return reported inhibition at 0.1111 µM for target or system UniProt P28845, item COc1ccccc1-c1cccc(N2CCC(C)(c3ccccc3)OC2=O)c1 (stereo not drawn) .
A: 76.7

Q: Under UniProt P28845: report inhibition at 0.1111 µM of CSc1ccc(C2(C)CCN([C@@H](C)c3ccccc3)C(=O)O2)cc1 (stereo partly drawn) .
A: 83.1

Q: Lab note: record inhibition at 0.1111 µM of C=CCC1(c2cccs2)CCN([C@@H](C)c2ccc(Br)cc2)C(=O)O1 (single isomer, unassigned) [EXAMPLE 157 Isomer 2] tested on UniProt P28845.
A: 90.7

Q: Please respond with reported inhibition at 0.1111 µM (system UniProt P28845) for COc1cccc([C@H](C)N2CCC(C)(c3ccccc3)OC2=O)c1 (stereo partly drawn) [EXAMPLE 84] .
A: 94.6

Q: Report the value of inhibition at 0.1111 µM obtained on UniProt P28845 for Cc1cccc(C2(C)CCN([C@@H](C)c3ccccc3)C(=O)O2)c1 (single isomer, unassigned) [EXAMPLE 87 Isomer 1] .
A: 13.3

Q: Provide measured inhibition at 0.1111 µM on UniProt P28845 for C[C@@H](c1cccc(OCC(=O)N2CCNCC2)c1)N1CCC(C)(c2ccccc2)OC1=O (mixture of isomers) please.
A: 16.2

Q: Please tell me the measured inhibition at 0.1111 µM for COc1cccc([C@H](C)N2CCC(C)(c3ccccc3)OC2=O)c1 (single isomer, unassigned) [EXAMPLE 84 Isomer 1] ; system: UniProt P28845.
A: 74.8

Q: Give inhibition at 0.1111 µM only, for CCOC(=O)COc1cccc([C@H](C)N2CCC(C)(c3ccccc3)OC2=O)c1 (stereo partly drawn) , using UniProt P28845 data.
A: 39.8

Q: State, for UniProt P28845, measured inhibition at 0.1111 µM of the molecule listed here: CC(=O)NCc1cccc(-c2cccc(N3CCC(C)(c4ccccc4)OC3=O)c2)c1 (stereo not drawn)
A: 19.9

Q: Enter measured inhibition at 0.1111 µM, system UniProt P28845, for the molecule shown: CC1(c2ccccc2)CCN(c2nccc(-c3ccc(F)cc3F)n2)C(=O)O1 (stereo not drawn)
A: 18

Q: GET inhibition at 0.1111 µM where system = UniProt P28845 and item = C[C@@H](c1ccccc1)N1CC[C@@](CCO)(c2ccc(F)cc2)OC1=O (single isomer, unassigned) [EXAMPLE 97 Isomer 1]
A: 52.8

Attribution: patent US8575156B2
